Assay: Inhibition of ROCK
For each entry below, report its pIC50 value.
Provide a numeric answer; units are not to be included.

Could you please provide reported pIC50 for c1ccc(CN[C@H]2CC[C@H](Nc3ccc4[nH]ncc4c3)CC2)cc1 ? Thanks!
6.28

Could you please provide reported pIC50 for Clc1ccccc1CN1CCCC(Nc2cccc3cnccc23)C1 (centres undefined) ? Thanks!
6.68

Could you please provide reported pIC50 for Nc1ccccc1CN1CCC(Nc2cccc3cnccc23)C1 (centres undefined) ? Thanks!
6.69

Could you please provide reported pIC50 for Clc1cccc(CN2CCCC(Nc3cccc4cnccc34)C2)c1 (centres undefined) ? Thanks!
6.58

Could you please provide reported pIC50 for O=[N+]([O-])c1ccc(CN2CCCC(Nc3ccc4[nH]ncc4c3)C2)cc1 (centres undefined) ? Thanks!
7.06

Could you please provide reported pIC50 for Clc1cccc(CN2CCC(Nc3cccc4cnccc34)C2)c1 (centres undefined) ? Thanks!
7.19

Could you please provide reported pIC50 for Fc1cccc(F)c1CN1CCC(Nc2cccc3cnccc23)C1 (centres undefined) ? Thanks!
7.12

Could you please provide reported pIC50 for CCCN1CCC(Nc2cccc3cnccc23)CC1 ? Thanks!
6.46

Could you please provide reported pIC50 for O=C(NC1CCN(Cc2ccccc2)CC1)c1ccc2[nH]ncc2c1 ? Thanks!
6.27

Could you please provide reported pIC50 for Nc1cccc(CN2CCC(Nc3cccc4cnccc34)C2)c1 (centres undefined) ? Thanks!
6.56

Could you please provide reported pIC50 for c1cc(N[C@H]2CC[C@@H](NC3CC3)CC2)c2ccncc2c1 ? Thanks!
6.74

Could you please provide reported pIC50 for COc1ccc(CN2CCCC(Nc3ccc4[nH]ncc4c3)C2)cc1 (centres undefined) ? Thanks!
7.8

Could you please provide reported pIC50 for O=C(Nc1ccc2[nH]ncc2c1)C1CCCN(Cc2ccccc2)C1 (centres undefined) ? Thanks!
7.74

Could you please provide reported pIC50 for Nc1ccccc1CN1CCCC(Nc2ccc3[nH]ncc3c2)C1 (centres undefined) ? Thanks!
7.07

Could you please provide reported pIC50 for c1ccc(CN2CCCC(Nc3ccc4[nH]ncc4c3)C2)nc1 (centres undefined) ? Thanks!
6.62

Could you please provide reported pIC50 for CC(C)CCN1CCCC(Nc2cccc3cnccc23)C1 (centres undefined) ? Thanks!
6.57

Could you please provide reported pIC50 for c1ccc(CN2CCC(Oc3ccc4[nH]ncc4c3)CC2)cc1 ? Thanks!
7

Could you please provide reported pIC50 for c1c[nH]c(CN2CCCC(Nc3ccc4[nH]ncc4c3)C2)c1 (centres undefined) ? Thanks!
7.96

Could you please provide reported pIC50 for c1ccc(CN2CCCC(Oc3ccc4[nH]ncc4c3)C2)cc1 (centres undefined) ? Thanks!
8

Could you please provide reported pIC50 for O=C(COc1c(Cl)cccc1Cl)Nc1ccc2[nH]ncc2c1 ? Thanks!
6

Could you please provide reported pIC50 for c1ccc(CCN[C@H]2CC[C@@H](Nc3cccc4cnccc34)CC2)cc1 ? Thanks!
6.24

Could you please provide reported pIC50 for Clc1ccccc1CN1CCC(Nc2cccc3cnccc23)C1 (centres undefined) ? Thanks!
7

Could you please provide reported pIC50 for CN(CCNc1ccc2[nH]ncc2c1)Cc1ccccc1 ? Thanks!
5.1

Could you please provide reported pIC50 for Fc1cc2[nH]ncc2cc1NC1CCCN(Cc2ccccc2)C1 (centres undefined) ? Thanks!
6.4
